Test system: RAW264.7
ASSAY: Antiinflammatory activity in mouse RAW264.7 cells assessed as inhibition of LPS-induced NO production preincubated for 3 hrs followed by LPS addition measured after 24 hrs by Griess assay
Assay type: functional, cell-based
pIC50: −log10 of the molar value.
METRIC: pIC50

Request: Consider the compound shown here: C=C1CC[C@H]2[C@@](C)(CC[C@@H](OC(=O)C(N)CC(C)C)[C@@]2(C)NC=O)[C@@H]1/C=C/C1=CCOC1=O (single isomer, unassigned) What is its recorded pIC50?
Response: < 4.30

Request: What do we get for C=C1CC[C@H]2[C@@](C)(CC[C@@H](OC(=O)CCCC[C@@H]3CCSS3)[C@@]2(C)NC=O)[C@@H]1/C=C/C1=CCOC1=O ?
Response: < 4.30

Request: Consider next the compound C[C@]12CCC(=O)C=C1CC[C@@H]1[C@@H]2[C@@H](O)C[C@@]2(C)[C@H]1CC[C@]2(O)C(=O)CO [HYDROCORTISONE] in the same way.
Response: 4.28

Request: Now give it for C=C1CC[C@H]2[C@@](C)(CCC(=O)N[C@@]2(C)CO)[C@@H]1/C=C/C1=CCOC1=O too.
Response: < 4.30

Request: Next entry: C=C1CC[C@H]2[C@@](C)(CC[C@@H](OC(=O)CNC)[C@@]2(C)NC=O)[C@@H]1/C=C/C1=CCOC1=O
Response: < 4.30

Request: Another compound to look at: C=C1CC[C@H]2[C@@](C)(CC[C@@H](OC(=O)c3ccccc3[N+](=O)[O-])[C@@]2(C)NC=O)[C@@H]1/C=C/C1=CCOC1=O
Response: < 4.30

Request: Try this compound next: C=C1CC[C@H]2[C@@](C)(CC[C@@H](OC(=O)[C@H]3CCCN3)[C@@]2(C)NC=O)[C@@H]1/C=C/C1=CCOC1=O
Response: < 4.30

Request: Proceed to C=C1CC[C@H]2[C@@](C)(CCC(=O)N[C@@]2(C)COC(=O)CCCC[C@@H]2CCSS2)[C@@H]1/C=C/C1=CCOC1=O
Response: 4.65

###

Give measured IC50 for each item. Keep answers brief.
Test system: RAW264.7
ASSAY: Antiinflammatory activity in mouse RAW264.7 cells assessed as inhibition of LPS-induced NO production preincubated for 3 hrs followed by LPS addition measured after 24 hrs by Griess assay
Format: functional, cell-based

Request: Name the recorded IC50 for C=C1CC[C@H]2[C@@](C)(CC[C@@H](O)[C@@]2(C)NC=O)[C@@H]1/C=C/C1=CCOC1=O .
Response: > 50 µM

Request: One more compound: C=C1CC[C@H]2[C@@](C)(CC[C@@H](OC(=O)c3cccnc3)[C@@]2(C)NC=O)[C@@H]1/C=C/C1=CCOC1=O
Response: > 50 µM

Request: Same read-out for C=C1CC[C@H]2[C@@](C)(CCC(=O)N[C@@]2(C)COC(=O)c2ccc([N+](=O)[O-])cc2)[C@@H]1/C=C/C1=CCOC1=O ?
Response: 33.5 µM

Request: Let us now turn to C=C1CC[C@H]2[C@@](C)(CCC(=O)N[C@@]2(C)COC(=O)[C@H](N)Cc2ccccc2)[C@@H]1/C=C/C1=CCOC1=O
Response: > 50 µM

Request: Now this one: C=C1CC[C@@H]2[C@](C)(CO)[C@H](O)CC[C@@]2(C)[C@@H]1C/C=C1/C(=O)OC[C@H]1O [ANDROGRAPHOLIDE]
Response: 14.4 µM

Request: Next: C=C1CC[C@H]2[C@@](C)(CC[C@@H](OC(=O)c3ccc([N+](=O)[O-])cc3)[C@@]2(C)NC=O)[C@@H]1/C=C/C1=CCOC1=O
Response: > 50 µM

Request: Note, next up: C=C1CC[C@H]2[C@@](C)(CCC(=O)N[C@@]2(C)COC(=O)[C@H](N)CC(C)C)[C@@H]1/C=C/C1=CCOC1=O
Response: > 50 µM

Origin of the recorded values: ChEMBL document CHEMBL4346716
